# System: LG0567-F671-PDC complex spheroids viability
# MEASUREMENT_NOTES: Anticancer human tumor LG0567-F671-PDC patient-derived lung adenocarcinoma cell line growth inhibition [RAS]
# CONDITION_DETAILS: second compound 0.03 µM; first compound 1 µM; stronger effect = lower value
# Text: RAS pathway inhibitors in Combinations in Complex Spheroids A high-throughput screen of multi-cell type tumor spheroids was designed to identify active combinations of RAS pathway inhibitors and targeted small molecules. Complex spheroids include a stromal component modeled by human endothelial cells (HUVEC) and fibroblasts modeled by human mesenchymal stem cells (MSCs). […] Compounds. […] If the clinical Cmax for an agent had not been determined, the highest concentration tested was 10 microM. […]
ENDPOINT: viability, T/C (%)
Numbers only, in %.

>>> endpoint_result("C[C@@H](NC(=O)c1ncnc(N)c1Cl)c1ncc(C(=O)Nc2cc(C(F)(F)F)c(Cl)cn2)s1 + CCn1c(-c2cc(N3CCN(C)CC3)cnc2C(C)OC)c2c3cc(ccc31)-c1csc(n1)CC(NC(=O)C1CC1C)C(=O)N1CCCC(N1)C(=O)OCC(C)(C)C2")
8.15

Reported viability, T/C for CCN1CCN(Cc2ccc(Nc3ncc(F)c(-c4cc(F)c5nc(C)n(C(C)C)c5c4)n3)nc2)CC1 + CCn1c(-c2cccnc2C(C)OC)c2c3cc(ccc31)N1CCOC(CC(NC(=O)C(C(C)C)N(C)C(=O)C3(F)CCN(C(=O)C#CC(C)(C)N(C)C)CC3)C(=O)N3CCCC(N3)C(=O)OCC(C)(C)C2)C1 was 16.5

---

# Tested on: LG0567-F671-PDC complex spheroids viability
# MEASUREMENT_NOTES: Anticancer human tumor LG0567-F671-PDC cell line growth inhibition [RAS];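 further: spheroids exposed to compound for seven days before readout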;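 on IC50: luminescence signal used as a proxy for viable cells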
# CONDITION_DETAILS: curve of compound
# Source text: RAS pathway inhibitors in Combinations in Complex Spheroids A high-throughput screen of multi-cell type tumor spheroids was designed to identify active combinations of RAS pathway inhibitors and targeted small molecules. Complex spheroids include a stromal component modeled by human endothelial cells (HUVEC) and fibroblasts modeled by human mesenchymal stem cells (MSCs). […] Compounds. […] If the clinical Cmax for an agent had not been determined, the highest concentration tested was 10 microM. […]
ENDPOINT: IC50

>>> endpoint_result("CCC(CC)c1cc(NC2CCC(N)C2)n2nccc2n1 (stereo not drawn)")
"1.86 µM [middle of 4 runs]"
>>> endpoint_result("NC1c2ccccc2OC12CCN(c1cnc3c(N4CCCc5ncccc54)n[nH]c3n1)CC2 (stereo not drawn)")
"< 31.6 nM"
>>> endpoint_result("CCN1CCN(Cc2ccc(Nc3ncc(F)c(-c4cc(F)c5nc(C)n(C(C)C)c5c4)n3)nc2)CC1")
"> 1000 nM"

Hi! Can you tell me IC50 for each of these compounds?
1. Nc1ccn(C2OC(CO)C(O)C2(F)F)c(=O)n1 (stereo not drawn)
2. Cc1nc(N2CCC3(CC2)COC(C)C3N)c(CO)nc1Sc1ccnc(N)c1Cl (stereo not drawn)
3. CC(Nc1ccc2c(c1)OCCn1cc(N3C(=O)OCC3C(F)F)nc1-2)C(N)=O (stereo not drawn)
4. CC(C)NCC(C(=O)N1CCN(c2ncnc3c2C(C)CC3O)CC1)c1ccc(Cl)cc1 (stereo not drawn)
5. CC(=O)OC12COC1CC(O)C1(C)C(=O)C(O)C3=C(C)C(OC(=O)C(O)C(NC(=O)OC(C)(C)C)c4ccccc4)CC(O)(C(OC(=O)c4ccccc4)C21)C3(C)C (stereo not drawn)
6. O=C(c1ccc(F)c(F)c1Nc1ccc(I)cc1F)N1CC(O)([C@@H]2CCCCN2)C1

Result:
1: > 1000 nM; 2: 93.7 nM [middle of 4 runs]; 3: 386 nM [middle of 4 runs]; 4: > 10000 nM; 5: < 31.6 nM; 6: 17.3 nM [middle of 4 runs]

Give IC50 for each of the items listed below.
1. C[C@@H](NC(=O)c1ncnc(N)c1Cl)c1ncc(C(=O)Nc2cc(C(F)(F)F)c(Cl)cn2)s1
2. C=CC(=O)N1CCN(c2nc(OCC3CCCN3C)nc3c(F)c(-c4nc(N)cc(C)c4C(F)(F)F)c(Cl)cc23)C(C)C1 (stereo not drawn)
3. CCc1c2c(nc3ccc(O)cc13)-c1cc3c(c(=O)n1C2)COC(=O)[C@]3(O)CC
4. C=CC(=O)Nc1cc(Nc2nccc(-c3cn(C)c4ccccc34)n2)c(OC)cc1N(C)CCN(C)C

Result:
> 10000 nM
< 3.16 nM
26.9 nM [middle of 4 runs]
225 nM [middle of 4 runs]

---

# Tested on: LG0567-F671-PDC complex spheroids viability
# MEASUREMENT_NOTES: Anticancer human tumor LG0567-F671-PDC cell line growth inhibition [RAS];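 further: spheroids exposed to compound for seven days before readout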
# CONDITION_DETAILS: second compound 0.03 µM; first compound 0.1 µM; stronger effect = lower value
ENDPOINT: viability, T/C

>>> endpoint_result("CCC(CC)c1cc(NC2CCC(N)C2)n2nccc2n1 (centres undefined) + CCn1c(-c2cccnc2C(C)OC)c2c3cc(ccc31)N1CCOC(CC(NC(=O)C(C(C)C)N(C)C(=O)C3(F)CCN(C(=O)C#CC(C)(C)N(C)C)CC3)C(=O)N3CCCC(N3)C(=O)OCC(C)(C)C2)C1")
"13.2%"
>>> endpoint_result("CC(Nc1ccc2c(c1)OCCn1cc(N3C(=O)OCC3C(F)F)nc1-2)C(N)=O (centres undefined) + CCn1c(-c2cc(N3CCN(C)CC3)cnc2C(C)OC)c2c3cc(ccc31)-c1csc(n1)CC(NC(=O)C1CC1C)C(=O)N1CCCC(N1)C(=O)OCC(C)(C)C2")
"2.58%"
>>> endpoint_result("Nc1ccn(C2OC(CO)C(O)C2(F)F)c(=O)n1 (centres undefined) + CCn1c(-c2cc(N3CCN(C)CC3)cnc2C(C)OC)c2c3cc(ccc31)-c1csc(n1)CC(NC(=O)C1CC1C)C(=O)N1CCCC(N1)C(=O)OCC(C)(C)C2")
"4.82%"

Noted for CC(C)n1nc(-c2ccc3oc(N)nc3c2)c2c(N)ncnc21 + CCn1c(-c2cc(N3CCN(C)CC3)cnc2C(C)OC)c2c3cc(ccc31)-c1csc(n1)CC(NC(=O)C1CC1C)C(=O)N1CCCC(N1)C(=O)OCC(C)(C)C2 : its viability, T/C reads 1.03%

---

# Tested on: LG0567-F671-PDC complex spheroids viability
# MEASUREMENT_NOTES: Anticancer human tumor LG0567-F671-PDC cell line growth inhibition [RAS];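 further: spheroids exposed to compound for seven days before readout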
# CONDITION_DETAILS: second compound 0.3 µM; first compound 0.316 µM; stronger effect = lower value
Mark y only when viability, T/C stays strictly below 3%. Values equal to the cut-off are n.

Example results:
>>> classification("Cc1nc(N2CCC3(CC2)COC(C)C3N)c(CO)nc1Sc1ccnc(N)c1Cl (stereo not given) + CCn1c(-c2cc(N3CCN(C)CC3)cnc2C(C)OC)c2c3cc(ccc31)-c1csc(n1)CC(NC(=O)C1CC1C)C(=O)N1CCCC(N1)C(=O)OCC(C)(C)C2")
"y"
>>> classification("C[C@@H](NC(=O)c1ncnc(N)c1Cl)c1ncc(C(=O)Nc2cc(C(F)(F)F)c(Cl)cn2)s1 + CCn1c(-c2cc(N3CCN(C)CC3)cnc2C(C)OC)c2c3cc(ccc31)-c1csc(n1)CC(NC(=O)C1CC1C)C(=O)N1CCCC(N1)C(=O)OCC(C)(C)C2")
"n"
>>> classification("CCC(CC)c1cc(NC2CCC(N)C2)n2nccc2n1 (stereo not given) + CCn1c(-c2cccnc2C(C)OC)c2c3cc(ccc31)N1CCOC(CC(NC(=O)C(C(C)C)N(C)C(=O)C3(F)CCN(C(=O)C#CC(C)(C)N(C)C)CC3)C(=O)N3CCCC(N3)C(=O)OCC(C)(C)C2)C1")
"n"

Problem: Given the entry C=CC(=O)Nc1cc(Nc2nccc(-c3cn(C)c4ccccc34)n2)c(OC)cc1N(C)CCN(C)C + CCn1c(-c2cc(N3CCN(C)CC3)cnc2C(C)OC)c2c3cc(ccc31)-c1csc(n1)CC(NC(=O)C1CC1C)C(=O)N1CCCC(N1)C(=O)OCC(C)(C)C2 , would its reported viability, T/C be below 3%?
Result: y

Problem: Confirm or reject: viability, T/C of C=CC(=O)N1CCN(c2nc(OCC3CCCN3C)nc3c(F)c(-c4nc(N)cc(C)c4C(F)(F)F)c(Cl)cc23)C(C)C1 (stereo not given) + CCn1c(-c2cccnc2C(C)OC)c2c3cc(ccc31)N1CCOC(CC(NC(=O)C(C(C)C)N(C)C(=O)C3(F)CCN(C(=O)C#CC(C)(C)N(C)C)CC3)C(=O)N3CCCC(N3)C(=O)OCC(C)(C)C2)C1 lies strictly below 3%
Result: n

Problem: Hello, I'm reviewing records and need to know if viability, T/C of CC(C)NCC(C(=O)N1CCN(c2ncnc3c2C(C)CC3O)CC1)c1ccc(Cl)cc1 (stereo not given) + CCn1c(-c2cccnc2C(C)OC)c2c3cc(ccc31)N1CCOC(CC(NC(=O)C(C(C)C)N(C)C(=O)C3(F)CCN(C(=O)C#CC(C)(C)N(C)C)CC3)C(=O)N3CCCC(N3)C(=O)OCC(C)(C)C2)C1 is below 3%. Could you check?
Result: n

Problem: Would you kindly verify if viability, T/C of CC(C)NCC(C(=O)N1CCN(c2ncnc3c2C(C)CC3O)CC1)c1ccc(Cl)cc1 (stereo not given) + CCn1c(-c2cc(N3CCN(C)CC3)cnc2C(C)OC)c2c3cc(ccc31)-c1csc(n1)CC(NC(=O)C1CC1C)C(=O)N1CCCC(N1)C(=O)OCC(C)(C)C2 is strictly less than 3%?
Result: y

Problem: Does this molecule meet the criterion viability, T/C < 3%? C=CC(=O)N1CCN(c2nc(OCC3CCCN3C)nc3c(F)c(-c4nc(N)cc(C)c4C(F)(F)F)c(Cl)cc23)C(C)C1 (stereo not given) + CCn1c(-c2cc(N3CCN(C)CC3)cnc2C(C)OC)c2c3cc(ccc31)-c1csc(n1)CC(NC(=O)C1CC1C)C(=O)N1CCCC(N1)C(=O)OCC(C)(C)C2
Result: y

Problem: For the molecule NC1c2ccccc2OC12CCN(c1cnc3c(N4CCCc5ncccc54)n[nH]c3n1)CC2 (stereo not given) + CCn1c(-c2cccnc2C(C)OC)c2c3cc(ccc31)N1CCOC(CC(NC(=O)C(C(C)C)N(C)C(=O)C3(F)CCN(C(=O)C#CC(C)(C)N(C)C)CC3)C(=O)N3CCCC(N3)C(=O)OCC(C)(C)C2)C1 , is viability, T/C under 3%?
Result: y

Problem: Decide: viability, T/C of O=C(c1ccc(F)c(F)c1Nc1ccc(I)cc1F)N1CC(O)([C@@H]2CCCCN2)C1 + CCn1c(-c2cccnc2C(C)OC)c2c3cc(ccc31)N1CCOC(CC(NC(=O)C(C(C)C)N(C)C(=O)C3(F)CCN(C(=O)C#CC(C)(C)N(C)C)CC3)C(=O)N3CCCC(N3)C(=O)OCC(C)(C)C2)C1 strictly below 3%?
Result: y

Problem: # check: viability, T/C < 3% for O=C(c1ccc(F)c(F)c1Nc1ccc(I)cc1F)N1CC(O)([C@@H]2CCCCN2)C1 + CCn1c(-c2cc(N3CCN(C)CC3)cnc2C(C)OC)c2c3cc(ccc31)-c1csc(n1)CC(NC(=O)C1CC1C)C(=O)N1CCCC(N1)C(=O)OCC(C)(C)C2
Result: y

Problem: Would you kindly verify if viability, T/C of NC1c2ccccc2OC12CCN(c1cnc3c(N4CCCc5ncccc54)n[nH]c3n1)CC2 (stereo not given) + CCn1c(-c2cc(N3CCN(C)CC3)cnc2C(C)OC)c2c3cc(ccc31)-c1csc(n1)CC(NC(=O)C1CC1C)C(=O)N1CCCC(N1)C(=O)OCC(C)(C)C2 is strictly less than 3%?
Result: y

Problem: I wonder whether C[C@@H](NC(=O)c1ncnc(N)c1Cl)c1ncc(C(=O)Nc2cc(C(F)(F)F)c(Cl)cn2)s1 + CCn1c(-c2cccnc2C(C)OC)c2c3cc(ccc31)N1CCOC(CC(NC(=O)C(C(C)C)N(C)C(=O)C3(F)CCN(C(=O)C#CC(C)(C)N(C)C)CC3)C(=O)N3CCCC(N3)C(=O)OCC(C)(C)C2)C1 has viability, T/C below 3%. Can you tell?
Result: n

Problem: For the molecule CC1(O)CCCC1n1c(=O)c(C(F)F)cc2cnc(NC3CCN(S(C)(=O)=O)CC3)nc21 (stereo not given) + CCn1c(-c2cccnc2C(C)OC)c2c3cc(ccc31)N1CCOC(CC(NC(=O)C(C(C)C)N(C)C(=O)C3(F)CCN(C(=O)C#CC(C)(C)N(C)C)CC3)C(=O)N3CCCC(N3)C(=O)OCC(C)(C)C2)C1 , is viability, T/C under 3%?
Result: n
